TARGET_OR_SYSTEM: PDGF-Ra (Homo sapiens)
Construct: host or cells: G-292 human osteosarcoma cells
Sequence (P16234 24-1089): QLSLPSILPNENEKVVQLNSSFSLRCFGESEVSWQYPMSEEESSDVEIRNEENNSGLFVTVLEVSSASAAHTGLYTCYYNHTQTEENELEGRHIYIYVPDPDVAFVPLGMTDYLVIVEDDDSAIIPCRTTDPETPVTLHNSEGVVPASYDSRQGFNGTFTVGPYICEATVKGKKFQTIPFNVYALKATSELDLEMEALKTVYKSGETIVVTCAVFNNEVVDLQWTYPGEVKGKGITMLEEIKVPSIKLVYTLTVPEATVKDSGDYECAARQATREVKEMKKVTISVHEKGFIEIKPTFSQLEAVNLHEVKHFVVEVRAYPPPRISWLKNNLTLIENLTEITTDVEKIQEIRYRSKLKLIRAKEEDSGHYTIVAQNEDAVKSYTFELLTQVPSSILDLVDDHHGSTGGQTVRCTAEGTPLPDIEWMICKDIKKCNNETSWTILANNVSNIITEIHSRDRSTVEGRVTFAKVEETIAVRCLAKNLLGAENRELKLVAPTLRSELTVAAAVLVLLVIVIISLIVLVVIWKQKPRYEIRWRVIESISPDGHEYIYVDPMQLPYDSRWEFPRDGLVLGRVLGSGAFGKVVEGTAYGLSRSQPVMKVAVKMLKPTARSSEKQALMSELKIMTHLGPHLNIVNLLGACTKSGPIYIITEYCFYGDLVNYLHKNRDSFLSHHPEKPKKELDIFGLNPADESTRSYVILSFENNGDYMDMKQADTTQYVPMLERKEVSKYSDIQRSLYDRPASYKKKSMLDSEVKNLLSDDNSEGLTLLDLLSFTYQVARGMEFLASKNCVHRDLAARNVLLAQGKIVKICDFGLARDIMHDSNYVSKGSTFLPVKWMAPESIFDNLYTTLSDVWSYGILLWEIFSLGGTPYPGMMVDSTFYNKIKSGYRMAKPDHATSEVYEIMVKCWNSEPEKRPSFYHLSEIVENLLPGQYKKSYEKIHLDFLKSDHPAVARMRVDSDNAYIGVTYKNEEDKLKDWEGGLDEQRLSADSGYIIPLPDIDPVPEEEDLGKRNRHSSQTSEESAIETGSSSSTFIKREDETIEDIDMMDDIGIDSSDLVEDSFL
PROTOCOL: Inhibitory activity against PDGF-Ra phosphorylation by PDGF-AA stimulation using G292
Format: cell-based
CONDITION: > means inhibition at indicated concentration not more than 50%, < and << not less than 50%; read-out: PDGF (E) IC50
Friendly reminder: IC50 below 20 nM is 1, at or above is -1.

Task: Regarding CCCCCC(C)OC(=O)Nc1cc(C)c(Oc2ccnc3cc(OC)c(OC)cc23)cc1C (stereo not drawn) [Example 412] , kindly confirm whether its IC50 is beneath 20 nM.
Result: -1

Task: Lookup COc1cc2nccc(Oc3ccc(NC(=S)NC(=O)N(C)c4ccccc4)cc3)c2cc1OC [Example 1046]
Result: -1

Task: And then CCCCN(CCCC)CCNC(=O)Nc1ccc(Oc2ccnc3cc(OC)c(OC)cc23)c(C)c1C [Example 684] , what is it?
Result: -1

Task: Try this molecule too: COc1cc(Oc2ncnc3cc(OC)c(OC)cc23)ccc1NC(=O)NCCN(C(C)C)C(C)C [Example 660]
Result: -1
